Each entry below carries its reported inhibition at 5 µM.
tested on: Tat induced HIV-1 LTR-CAT gene expression in Jurkat cells; assay: Tat induced HIV-1 LTR-CAT gene expression in Jurkat cells; format: cell-based; conditions: Homo sapiens, Tat (pSV-Tat), 24 hours
Supply the numeric figure in %, leaving out any unit text.

These solved cases illustrate the format of a correct answer.
Nc1nc(Cc2ccccc2Cl)cc(C2CCN(C(=O)c3ccc4c(c3)OCO4)CC2)n1 | 67
COc1ccc(Cc2cc(C3CCN(C(=O)c4ccc5c(c4)OCO5)CC3)nc(N)n2)cc1OC | 22
Nc1nc(C2CCN(C(=O)c3ccc4c(c3)OCO4)CC2)c2ccccc2n1 | 81

q: Give inhibition at 5 µM for the following compound: COc1cc(Cc2cc(C3CCN(C(=O)c4ccc5c(c4)OCO5)CC3)nc(N)n2)cc(OC)c1
a: 70

###

tested on: Tat induced HIV-1 LTR-CAT gene expression in Jurkat cells; assay: Tat induced HIV-1 LTR-CAT gene expression in Jurkat cells; assay type: cell-based; conditions: Homo sapiens, Tat (pSV-Tat), 24 hours
Measured Attribute: inhibition at 5 µM

These solved cases illustrate the format of a correct answer.
Nc1nc(Cc2ccc(Cl)c(Cl)c2)cc(C2CCN(C(=O)c3ccc4c(c3)OCO4)CC2)n1 | 63%
Nc1nc(CCc2ccccc2)cc(C2CCN(C(=O)c3ccc4c(c3)OCO4)CC2)n1 | 51%
Nc1nc(Cc2c(Cl)cccc2Cl)cc(C2CCN(C(=O)c3ccc4c(c3)OCO4)CC2)n1 | 69%

Now examine the next entry.
q: Give inhibition at 5 µM for the following compound: COc1ccc(Cc2cc(C3CCN(C(=O)c4ccc5c(c4)OCO5)CC3)nc(N)n2)cc1
a: 66%

###

Each entry below carries its reported inhibition at 5 µM.
System: Tat induced HIV-1 LTR-CAT gene expression in Jurkat cells
Experiment: Tat induced HIV-1 LTR-CAT gene expression in Jurkat cells
Format: cell-based
Settings: Homo sapiens, Tat (pSV-Tat), 24 hours
Experimental: p469, HIV-1 LTR driven CAT and pSV-Tat, Tat-expression vector were kindly provided from Dr. Gary J. Nabel (Nature Vol. 326, 711(1987)) RPMI 1640 medium (Life Technologies, Grand Island, N.Y., USA) was supplemented with heat-inactivated fetal calf serum (FBS; Sigma, St. Louis, Mo., USA). […] A compound tested was dissolved in dimethylsulfoxide at 100 mM as a stock solution. […] The CAT activity was detected by autoradiography and quantified by an Imaging Densitometer (model GS-700; Bio-Rad).
Number first, unit second: that is the form wanted.

These solved cases illustrate the format of a correct answer.
Nc1nc(Cc2ccc(Br)cc2)cc(C2CCN(C(=O)c3ccc4c(c3)OCO4)CC2)n1 | 65%
Nc1nc(Cc2ccc3c(c2)OCO3)cc(C2CCN(C(=O)c3ccc4c(c3)OCO4)CC2)n1 | 76%

q: Give inhibition at 5 µM for the following compound: COc1ccc2nc(N)nc(C3CCN(C(=O)c4ccc5c(c4)OCO5)CC3)c2c1
a: 36%

q: Give inhibition at 5 µM for the following compound: Nc1nc(Cc2ccc(Cl)cc2Cl)cc(C2CCN(C(=O)c3ccc4c(c3)OCO4)CC2)n1
a: 65%

###

Each entry below carries its reported inhibition at 5 µM.
test system: Tat induced HIV-1 LTR-CAT gene expression in Jurkat cells; assay: Tat induced HIV-1 LTR-CAT gene expression in Jurkat cells; format: cell-based; conditions: Homo sapiens, Tat (pSV-Tat), 24 hours
Supply the numeric figure in %, leaving out any unit text.

COc1cccc(Cc2cc(C3CCN(C(=O)c4ccc5c(c4)OCO5)CC3)nc(N)n2)c1 | 72
Nc1nc(Cc2ccccc2)cc(C2CCN(C(=O)c3ccc4c(c3)OCO4)CC2)n1 | 44
COc1ccc(OC)c(Cc2cc(C3CCN(C(=O)c4ccc5c(c4)OCO5)CC3)nc(N)n2)c1 | 66

Now examine the next entry.
q: Give inhibition at 5 µM for COc1cc(Cc2cc(C3CCN(C(=O)c4ccc5c(c4)OCO5)CC3)nc(N)n2)cc(OC)c1OC tested on Tat induced HIV-1 LTR-CAT gene expression in Jurkat cells.
a: 62
